Data provenance is patent US20240189408A1.

assay overview: 3-NOP to adsorbent ratio study
Format: physicochemical
run conditions: 3-NOP:Adsorbent 1:2.5, distilled water at 1% 3-NOP loading, 24 hr, HPLC
readout type: Average Integrated Area of 3-NOP in solution

These recorded examples may help you get a feel for the data.
>  <compound>
O=[N+]([O-])OCCCO [3-NOP, 3-nitrooxypropanol]

>  <recorded result>
2566.4

$$$$
>  <compound>
N[C@@H](CCC(=O)O)C(=O)O [Glutamic acid]

>  <recorded result>
2446.3

$$$$
>  <compound>
NCCCC[C@H](N)C(=O)O [Lysine]

>  <recorded result>
2266.6

$$$$

# ---- query compound ----
Notebook: N=C(N)NCCC[C@H](N)C(=O)O [Arginine] , Average Integrated Area of 3-NOP in solution read as 2435.2
